# ASSAY PROTOCOL: in vitro
# TEST SETTINGS: human
ASSAY ENDPOINT: IC50 at 24 h (µM)
Hi! Could you send only the number? It should be in µM, unit omitted.

CC1(C)C2CC=C(CNC(=O)c3ccc(/C=C/C(=O)NO)cc3)[C@@H]1C2 [21a] = 21.2

Turning now to a further record.
Bench note: what IC50 at 24 h did CC1(C)C2CC=C(CNC(=O)c3ccc(/C=C/C(=O)NO)cc3)[C@H]1C2 [21b] show?
37.2

---

# TARGET OF ASSAY: UniProt Q13547
# Sequence (Q13547 whole entry): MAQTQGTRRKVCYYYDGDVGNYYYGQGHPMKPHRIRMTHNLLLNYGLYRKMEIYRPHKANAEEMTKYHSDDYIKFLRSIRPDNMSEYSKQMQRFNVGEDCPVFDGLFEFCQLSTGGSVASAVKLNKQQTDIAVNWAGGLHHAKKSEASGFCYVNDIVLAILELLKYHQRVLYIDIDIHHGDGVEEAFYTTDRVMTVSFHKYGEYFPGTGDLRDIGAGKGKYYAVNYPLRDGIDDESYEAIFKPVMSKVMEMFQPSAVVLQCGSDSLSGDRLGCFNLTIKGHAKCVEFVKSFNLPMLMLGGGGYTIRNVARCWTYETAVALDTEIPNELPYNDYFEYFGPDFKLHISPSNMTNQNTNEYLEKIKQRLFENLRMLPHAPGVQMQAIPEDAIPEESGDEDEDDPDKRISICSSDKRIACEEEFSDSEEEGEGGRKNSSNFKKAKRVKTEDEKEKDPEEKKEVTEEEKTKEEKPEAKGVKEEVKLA
Catalogue of IC50 values
Write it as a number; the unit µM goes unstated.

Worked examples follow.
CC1(C)C2CC=C(CCNC(=O)/C=C/c3ccc(C(=O)NO)cc3)[C@@H]1C2 [18c] = 4.45
CC1(C)C2CC=C(CNC(=O)/C=C/c3ccc(C(=O)NO)cc3)[C@H]1C2 [18b] = 7.96
CC1(C)C2CC=C(CCNC(=O)c3ccc(/C=C/C(=O)NO)cc3)[C@@H]1C2 [21c] = 5
CC1(C)C2CC=C(CNC(=O)/C=C/c3ccc(C(=O)NO)cc3)[C@@H]1C2 [18a] = 6.9
CC1(C)C2CC=C(CNC(=O)c3ccc(/C=C/C(=O)NO)cc3)[C@@H]1C2 [21a] = 7.23

Now look at this entry.
I'm curious: which IC50 was measured for CC1(C)C2CC=C(CNC(=O)c3ccc(/C=C/C(=O)NO)cc3)[C@H]1C2 [21b] tested on UniProt Q13547?
8.2
